Entries and their measured phosphorylation enrichment follow.
# target entity: Fyn (UniProt P06241)
# Sequence (P06241 whole entry, looked up): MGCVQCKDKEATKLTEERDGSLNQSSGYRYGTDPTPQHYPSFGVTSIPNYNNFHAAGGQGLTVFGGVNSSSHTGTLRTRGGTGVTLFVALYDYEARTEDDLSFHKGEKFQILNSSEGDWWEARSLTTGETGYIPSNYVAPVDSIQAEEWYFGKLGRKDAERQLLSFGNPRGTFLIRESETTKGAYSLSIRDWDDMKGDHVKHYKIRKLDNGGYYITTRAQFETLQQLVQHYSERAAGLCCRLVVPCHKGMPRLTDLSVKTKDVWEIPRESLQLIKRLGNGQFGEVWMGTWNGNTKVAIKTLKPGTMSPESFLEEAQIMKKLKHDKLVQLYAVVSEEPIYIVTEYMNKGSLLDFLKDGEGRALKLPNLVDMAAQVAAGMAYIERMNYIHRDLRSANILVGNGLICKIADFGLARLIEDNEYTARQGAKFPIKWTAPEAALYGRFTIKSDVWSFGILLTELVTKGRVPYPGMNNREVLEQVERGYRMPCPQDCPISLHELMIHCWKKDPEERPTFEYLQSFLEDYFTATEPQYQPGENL
# assay: phosphorylation enrichment, bacterial display (enrichment ratio); higher = better substrate or ligand; peptides without Tyr show the background
Hey, just send me the number, nothing else.

residue sequence	phosphorylation enrichment
SIRYNYLLDVL [FGFR4_Y237]	0.495
EQDRAYLEGTC [HLA-C_Y183_L180D]	0.511
ERPGVHTNVVE [F11_Y608_Y608H]	0.517
VIKSSYQVAKA [CPT1B_Y534_E531K]	0.34
RLLRGYDQLAY [HLA-C_Y137_S140L]	0.735
EFSNQYKATIG [RAB7A_Y37_K32E]	0.339
ARVDTYCRHNY [HLA-DRB1_Y107_A103R]	0.552
EDKSIYRRGAC [PRKCI_Y125_R130C]	0.375

Q: // lookup phosphorylation enrichment for MHLRQYKLLGG [GNAS_Y391_E392K]
Result: 0.443

###

# target entity: Fyn (UniProt P06241)
# assay: phosphorylation enrichment, bacterial display (enrichment ratio); higher = better substrate or ligand; peptides without Tyr show the background
measured property: phosphorylation enrichment
Hey, just send me the number, nothing else.

Solved entries (count: 4):
residue sequence	target entity	obs value
VLICAYLLHRG [PTEN_Y138_M134L]	Fyn (UniProt P06241)	0.515
HNVPICEGYAL [ACTC1_Y168_Y168C]	Fyn (UniProt P06241)	0.434
EPNSRYTYKLE [USH2A_Y3745]	Fyn (UniProt P06241)	0.492
LHRAHYDLCHT [AHSG_Y314_R317C]	Fyn (UniProt P06241)	0.401

Q: // lookup phosphorylation enrichment for KEAQVYQAFKL [SUCLG2_Y343]
Result: 11.3

Q: Also QMVGMYASSSM [AVPR2_Y124_Y128S] , if possible.
Result: 0.438

Q: Also TSEASYFKSLN [NGEF_Y288_YF] , if possible.
Result: 0.684

Q: Also FARECYSALPQ [SARS2_Y52_G51C_YF] , if possible.
Result: 0.671

Q: Also WRPFGYPHRRR [BCS1L_Y181_R183H] , if possible.
Result: 0.488

Q: Also VVKTVYSLQPP [KNSTRN_Y87] , if possible.
Result: 2.59

Q: Also DAKTIYDFTDT [PDK1_Y136_A134T] , if possible.
Result: 3.52

Q: Also RLLVVYPSTQR [HBB_Y36_W38S] , if possible.
Result: 0.802

Q: Also WDLTDYLMKIL [ACTB_Y188_R183W] , if possible.
Result: 0.519

###

# Tested on: c-Abl (mouse)
# assay: phosphorylation enrichment, bacterial display (enrichment ratio); higher = better substrate or ligand; peptides without Tyr show the background
measured property: phosphorylation enrichment

residue sequence	obs value
DTQNSYRCATS [TSC1_Y304_G305R]	0.593
PGVNYYFRVSA	0.79
KLSCSYSHLSA [C4BPA_Y470_W473L]	0.782
FSEVRYVKEPF [HIPK4_Y170_YF]	0.676
RESVSYLFSHV [PRPS1_Y311_G306R]	1.06
DDIPLYLKGGV [COX7A2_Y44_E40D]	0.673

Q: // lookup phosphorylation enrichment for VKPRRYRPGTV [H3-5_Y41_H39R]
Result: 0.512

Q: Also SIRYNYLLDVL [FGFR4_Y237] , if possible.
Result: 0.821

Q: Also RMDGTYACSYT [FLNB_Y704] , if possible.
Result: 1.47

###

# Test system: Fer (mouse)
# assay: phosphorylation enrichment, bacterial display (enrichment ratio); higher = better substrate or ligand; peptides without Tyr show the background
Entries and their measured phosphorylation enrichment follow.
Hey, just send me the number, nothing else.

residue sequence	measured property	obs value
TPGPNYCPGFN [USH2A_Y463_R464C_YF]	phosphorylation enrichment	0.557
RRESPYGGGGG [FUS_Y526_R524S]	phosphorylation enrichment	0.436
FTFTSYFMHWV [IGHV1-46_Y51_YF]	phosphorylation enrichment	0.495

Now look at this entry.
Q: // lookup phosphorylation enrichment for MMVGAYSTLEG [ECPAS_Y470]
Result: 0.743

###

# target entity: EPHB1 (UniProt P54762)
# Sequence (P54762 whole entry, looked up): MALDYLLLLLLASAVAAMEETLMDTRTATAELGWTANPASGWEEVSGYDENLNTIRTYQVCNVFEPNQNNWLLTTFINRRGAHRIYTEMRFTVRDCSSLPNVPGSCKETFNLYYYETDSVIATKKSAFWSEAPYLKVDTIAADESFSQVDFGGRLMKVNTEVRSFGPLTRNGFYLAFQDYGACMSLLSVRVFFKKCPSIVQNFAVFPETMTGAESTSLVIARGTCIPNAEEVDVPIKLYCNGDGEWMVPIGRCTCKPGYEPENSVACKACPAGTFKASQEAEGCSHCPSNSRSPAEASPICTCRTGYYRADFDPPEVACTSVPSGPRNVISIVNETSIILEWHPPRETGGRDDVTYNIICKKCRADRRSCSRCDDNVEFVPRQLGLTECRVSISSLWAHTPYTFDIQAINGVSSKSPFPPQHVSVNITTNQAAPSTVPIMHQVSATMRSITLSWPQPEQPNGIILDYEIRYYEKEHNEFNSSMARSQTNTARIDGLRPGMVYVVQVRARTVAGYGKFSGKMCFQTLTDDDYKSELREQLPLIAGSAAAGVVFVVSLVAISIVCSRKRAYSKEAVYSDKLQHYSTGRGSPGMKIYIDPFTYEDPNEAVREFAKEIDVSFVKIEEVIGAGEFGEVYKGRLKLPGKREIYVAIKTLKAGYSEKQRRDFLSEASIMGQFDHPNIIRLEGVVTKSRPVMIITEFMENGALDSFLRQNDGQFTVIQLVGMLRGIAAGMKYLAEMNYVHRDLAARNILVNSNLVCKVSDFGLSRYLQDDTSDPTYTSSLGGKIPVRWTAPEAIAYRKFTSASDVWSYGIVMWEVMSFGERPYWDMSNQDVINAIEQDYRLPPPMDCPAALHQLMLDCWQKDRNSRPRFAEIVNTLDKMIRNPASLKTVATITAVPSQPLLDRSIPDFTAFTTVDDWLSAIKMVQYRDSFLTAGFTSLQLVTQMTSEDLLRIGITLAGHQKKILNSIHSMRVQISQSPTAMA
# assay: phosphorylation enrichment, bacterial display (enrichment ratio); higher = better substrate or ligand; peptides without Tyr show the background
measured property: phosphorylation enrichment

residue sequence	measured property	obs value
PFVFFYSFLLK [PTEN_Y178_R173P_YF]	phosphorylation enrichment	1.07

Q: // lookup phosphorylation enrichment for EPSLDYMVTKI [CPS1_Y768]
Result: 0.756

Q: Also KLSCSYSHLSA [C4BPA_Y470_W473L] , if possible.
Result: 0.535

Q: Also IRTDAYVPAMT [RPE65_Y89_R91P] , if possible.
Result: 0.33

Q: Also AIKSFYAALID [RYR1_Y2426_M2423K] , if possible.
Result: 1.25

###

# target entity: EPHB1 (UniProt P54762)
# assay: phosphorylation enrichment, bacterial display (enrichment ratio); higher = better substrate or ligand; peptides without Tyr show the background
Entries and their measured phosphorylation enrichment follow.
Hey, just send me the number, nothing else.

residue sequence	obs value
GARGRYVMGGP [TNK1_Y277]	0.504

Q: // lookup phosphorylation enrichment for SGDINYGQFAQ [PLCG1_Y210_T209N]
Result: 0.478

Q: Also AMCVCYDGVEV [ADAMTSL2_Y594_R593C] , if possible.
Result: 0.585

Q: Also QRALLYEDTLF [UNC13D_Y56_A59T_YF] , if possible.
Result: 15.4

###

Entries and their measured phosphorylation enrichment follow.
# target entity: EPHB2 (UniProt P29323)
# Sequence (P29323 whole entry, looked up): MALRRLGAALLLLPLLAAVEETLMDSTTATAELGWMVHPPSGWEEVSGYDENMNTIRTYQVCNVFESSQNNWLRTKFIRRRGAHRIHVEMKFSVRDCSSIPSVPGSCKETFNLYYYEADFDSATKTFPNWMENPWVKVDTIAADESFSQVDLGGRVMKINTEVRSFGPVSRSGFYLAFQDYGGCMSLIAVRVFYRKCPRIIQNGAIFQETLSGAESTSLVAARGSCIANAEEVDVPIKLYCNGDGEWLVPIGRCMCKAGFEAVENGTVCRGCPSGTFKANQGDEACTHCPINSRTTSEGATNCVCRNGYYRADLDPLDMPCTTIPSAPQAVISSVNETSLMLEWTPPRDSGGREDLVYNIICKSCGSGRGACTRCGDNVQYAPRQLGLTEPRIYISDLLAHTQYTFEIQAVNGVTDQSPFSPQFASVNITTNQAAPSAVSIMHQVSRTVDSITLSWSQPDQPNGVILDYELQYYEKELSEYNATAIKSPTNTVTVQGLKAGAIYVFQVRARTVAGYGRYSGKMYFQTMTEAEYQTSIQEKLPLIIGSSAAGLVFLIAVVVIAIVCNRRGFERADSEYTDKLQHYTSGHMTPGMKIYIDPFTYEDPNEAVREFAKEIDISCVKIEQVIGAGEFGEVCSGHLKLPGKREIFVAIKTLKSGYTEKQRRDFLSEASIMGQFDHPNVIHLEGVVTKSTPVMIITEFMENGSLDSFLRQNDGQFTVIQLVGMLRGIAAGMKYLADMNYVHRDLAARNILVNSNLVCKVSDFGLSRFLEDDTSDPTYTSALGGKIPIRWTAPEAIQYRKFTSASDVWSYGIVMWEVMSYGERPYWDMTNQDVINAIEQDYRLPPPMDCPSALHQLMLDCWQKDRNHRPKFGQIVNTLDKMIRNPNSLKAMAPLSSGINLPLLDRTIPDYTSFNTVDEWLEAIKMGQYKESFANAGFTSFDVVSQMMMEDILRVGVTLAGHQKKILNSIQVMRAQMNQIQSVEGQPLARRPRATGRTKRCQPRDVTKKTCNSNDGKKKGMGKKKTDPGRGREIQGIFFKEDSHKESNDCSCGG
# assay: phosphorylation enrichment, bacterial display (enrichment ratio); higher = better substrate or ligand; peptides without Tyr show the background
Hey, just send me the number, nothing else.

residue sequence	phosphorylation enrichment
HRAVEYLLMGI [RAD23A_Y197_T200M]	0.419
PEFINYHQHNS [BTK_Y361_L358F]	0.515
ELQDDYEDTME [SLC4A1_Y8_M11T]	0.836

Now look at this entry.
Q: // lookup phosphorylation enrichment for FQCKHYACIRQ [TIMP3_Y182_S179C_YF]
Result: 0.35

###

# target entity: MERTK (UniProt Q12866)
# Sequence (Q12866 whole entry, looked up): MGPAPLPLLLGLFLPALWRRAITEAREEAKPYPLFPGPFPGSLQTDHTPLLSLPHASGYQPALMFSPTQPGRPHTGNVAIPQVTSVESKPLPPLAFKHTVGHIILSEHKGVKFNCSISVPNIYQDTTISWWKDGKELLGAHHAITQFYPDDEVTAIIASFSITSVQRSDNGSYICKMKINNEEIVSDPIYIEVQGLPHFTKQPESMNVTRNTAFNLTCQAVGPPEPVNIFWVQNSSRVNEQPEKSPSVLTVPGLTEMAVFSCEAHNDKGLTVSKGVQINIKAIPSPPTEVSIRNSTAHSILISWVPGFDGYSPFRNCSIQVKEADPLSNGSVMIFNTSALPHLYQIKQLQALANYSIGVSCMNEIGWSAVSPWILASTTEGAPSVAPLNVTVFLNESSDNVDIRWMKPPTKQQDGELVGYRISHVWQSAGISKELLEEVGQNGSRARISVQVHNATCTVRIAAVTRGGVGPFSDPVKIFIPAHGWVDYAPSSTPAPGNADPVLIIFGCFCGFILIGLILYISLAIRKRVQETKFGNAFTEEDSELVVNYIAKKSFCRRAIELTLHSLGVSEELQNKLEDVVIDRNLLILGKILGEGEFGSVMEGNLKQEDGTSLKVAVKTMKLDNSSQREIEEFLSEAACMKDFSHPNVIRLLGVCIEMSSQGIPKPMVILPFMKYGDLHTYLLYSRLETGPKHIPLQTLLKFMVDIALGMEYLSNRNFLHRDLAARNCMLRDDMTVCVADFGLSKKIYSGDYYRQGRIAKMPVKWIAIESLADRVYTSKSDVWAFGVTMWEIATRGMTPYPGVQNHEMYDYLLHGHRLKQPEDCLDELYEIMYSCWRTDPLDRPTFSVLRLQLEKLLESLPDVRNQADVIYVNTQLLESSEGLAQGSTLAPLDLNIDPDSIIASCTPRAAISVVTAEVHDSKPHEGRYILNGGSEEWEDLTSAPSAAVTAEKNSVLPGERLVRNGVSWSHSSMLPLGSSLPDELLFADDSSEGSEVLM
# assay: phosphorylation enrichment, bacterial display (enrichment ratio); higher = better substrate or ligand; peptides without Tyr show the background
measured property: phosphorylation enrichment
Hey, just send me the number, nothing else.

residue sequence	phosphorylation enrichment
RQNQEYEILMD [KRT39_Y379_L383M]	0.503
SKKSTYQALLD [GANC_Y43]	0.403
EEQKKYYNATK [SCN5A_Y1494_M1498T]	0.411
EVRAQYEEIAQ [KRT76_Y361]	0.404

Q: Recorded phosphorylation enrichment for LNRAGYCDALE [MTUS1_Y151_C148R] with MERTK (UniProt Q12866), please?
Result: 0.484

Q: Also LSEEKYELKEG [TREM1_Y29_T25S] , if possible.
Result: 0.449

###

# target entity: Fes (UniProt P07332)
# Sequence (P07332 whole entry, looked up): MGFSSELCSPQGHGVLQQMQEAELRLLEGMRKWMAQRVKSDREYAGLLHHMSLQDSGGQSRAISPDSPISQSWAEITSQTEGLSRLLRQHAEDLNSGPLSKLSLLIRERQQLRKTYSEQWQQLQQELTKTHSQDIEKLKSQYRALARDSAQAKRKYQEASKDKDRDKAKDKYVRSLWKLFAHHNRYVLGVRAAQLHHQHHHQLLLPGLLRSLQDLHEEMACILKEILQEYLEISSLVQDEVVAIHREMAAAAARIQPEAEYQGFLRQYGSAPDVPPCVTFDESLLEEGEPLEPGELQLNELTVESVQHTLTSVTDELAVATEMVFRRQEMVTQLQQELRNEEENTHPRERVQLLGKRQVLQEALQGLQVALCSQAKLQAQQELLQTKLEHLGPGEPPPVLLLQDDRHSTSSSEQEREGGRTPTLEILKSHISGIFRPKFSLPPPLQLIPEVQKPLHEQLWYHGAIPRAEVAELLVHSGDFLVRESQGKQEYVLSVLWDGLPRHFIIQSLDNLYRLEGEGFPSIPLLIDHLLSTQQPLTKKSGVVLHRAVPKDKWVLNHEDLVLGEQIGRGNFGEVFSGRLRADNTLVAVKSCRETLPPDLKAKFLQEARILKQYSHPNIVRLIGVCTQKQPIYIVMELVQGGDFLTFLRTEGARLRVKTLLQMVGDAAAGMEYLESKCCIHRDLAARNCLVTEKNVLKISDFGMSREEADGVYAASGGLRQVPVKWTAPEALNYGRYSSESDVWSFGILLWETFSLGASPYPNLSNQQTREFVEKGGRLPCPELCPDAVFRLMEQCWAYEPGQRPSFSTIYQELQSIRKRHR
# assay: phosphorylation enrichment, bacterial display (enrichment ratio); higher = better substrate or ligand; peptides without Tyr show the background
measured property: phosphorylation enrichment
Hey, just send me the number, nothing else.

Solved entries (count: 3):
residue sequence	target entity	obs value
ANNPLYKEATP [ITGB3_Y773_S778P]	Fes (UniProt P07332)	0.764
MSLPGYKLVTG [GJA1_Y286_P283L]	Fes (UniProt P07332)	0.585
CDKEYYSVHNK [MET_Y1235_Y1230C]	Fes (UniProt P07332)	1.2

Q: Recorded phosphorylation enrichment for QDGFSYPSRQM [LDLR_Y847_YF] with Fes (UniProt P07332), please?
Result: 0.53

###

# target entity: c-Src SH2;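 also: peptide library displayed on the E. coli surface as eCPX fusions, selected cells deep-sequenced, score is each peptide's frequency after selection divided by its frequency in the input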
# assay: SH2 binding enrichment of the phosphorylated peptide, bacterial display (enrichment ratio); higher = better substrate or ligand; peptides without Tyr show the background
Entries and their measured SH2 binding enrichment follow.
Hey, just send me the number, nothing else.

residue sequence	SH2 binding enrichment
PEFINYHQHNS [BTK_Y361_L358F]	0.608
YKIYLYTLNDN [FN1_Y1975]	0.483
IVRSPYEDLED [VHL_Y185_L184P]	5.64
SGDINYGQFAQ [PLCG1_Y210_T209N]	0.526
KMKGDYYRSLA [YWHAG_Y130_Y133S]	0.891

Q: Recorded SH2 binding enrichment for MKDLTYASLCF [ALOX5_Y446] with c-Src SH2, please?
Result: 0.411

Q: Also AALSAYAPQRP [PTPRN2_Y249_A251P] , if possible.
Result: 0.504

Q: Also SVVVPYDPPEV [TP53_Y220_E221D] , if possible.
Result: 0.855

Q: Also HRAVEYLLMGI [RAD23A_Y197_T200M] , if possible.
Result: 1.11

Q: Also SLLPDYEDEEE [ZNF830_Y159] , if possible.
Result: 0.601

Q: Also PLSGEYFTLQI [TP53_Y327_D324S] , if possible.
Result: 0.432

Q: Also EQLLDYTRTVQ [INPP5E_Y439_R435Q] , if possible.
Result: 0.438

Q: Also LEEFQYIGELQ [MSH2_Y856_S860L] , if possible.
Result: 0.591

Q: Also CTTIHYNFMWN [TP53_Y234_C238W_YF] , if possible.
Result: 0.669

Q: Also DFGSGYPNDPK [RNASEH2A_Y210_YF] , if possible.
Result: 0.409

Q: Also SQSKGYRPKLY [SIPA1L3_Y1376_G1371S] , if possible.
Result: 0.447

Q: Also RRIHSYRCHLW [VHL_Y112_G114C] , if possible.
Result: 0.651

Q: Also IRKKYYRAILE [CHD7_Y1218_Q1214R] , if possible.
Result: 0.394

Q: Also GPRKAYELSQR [SETX_Y1297] , if possible.
Result: 0.422

Q: Also HSGVSYFINLC [IGF2R_Y2024_N2020S_YF] , if possible.
Result: 0.461

Q: Also STEPQYQPGEN [SRC_Y530] , if possible.
Result: 0.558

Q: Also ISDEAYVMAGV [ERBB2_Y772_L768S] , if possible.
Result: 0.543
